Molecular target: hCCR5 (Homo sapiens, UniProt P51681)
Sequence (P51681 whole entry): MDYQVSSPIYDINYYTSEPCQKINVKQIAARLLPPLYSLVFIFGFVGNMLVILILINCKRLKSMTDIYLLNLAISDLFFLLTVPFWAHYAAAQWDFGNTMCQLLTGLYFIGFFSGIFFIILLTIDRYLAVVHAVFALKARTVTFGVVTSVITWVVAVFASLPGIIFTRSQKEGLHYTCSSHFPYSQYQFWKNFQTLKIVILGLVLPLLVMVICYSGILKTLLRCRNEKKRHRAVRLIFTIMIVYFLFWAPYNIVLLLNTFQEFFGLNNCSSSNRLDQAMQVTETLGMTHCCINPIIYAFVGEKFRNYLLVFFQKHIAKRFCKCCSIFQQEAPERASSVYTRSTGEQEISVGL
Test: Tango β-arrestin recruitment assay in U2OS-CCR5 cells
Assay type: cell-based
Details: read-out: inhibition at 1 μM (%), β-arrestin recruitment in U2OS-CCR5 by 1 μM compound, in the presence of an EC80 concentration of CCL3; negative = CCL3 stimulation
The reader will find reported inhibition at 1 µM values listed item by item below.
measure: inhibition at 1 µM

molecule="COc1cccc(Cc2c(C3CC3)[nH]c3nc(N)nn3c2=O)c1 [Compound 17]" measured_result=-27%
molecule="COc1ccccc1Cc1c(C2CC2)[nH]c2nc(N)nn2c1=O [Compound 12]" measured_result=-20%
molecule="CC(C)c1[nH]c2nc(N)nn2c(=O)c1Cc1cc(Br)cc(Br)c1 [Compound 42]" measured_result="≤ 70%"
molecule="Nc1nc2[nH]c(C3CC3)c(Cc3cccc(F)c3)c(=O)n2n1 [Compound 14]" measured_result="< 45%"
molecule="Nc1nc2[nH]c(CCc3ccccc3)c(Cc3cccc(Cl)c3)c(=O)n2n1 [Compound 36]" measured_result=-42%
molecule="Cc1[nH]c2nc(N)nn2c(=O)c1Cc1cccc(Cl)c1 [Compound 24]" measured_result=-35%
molecule="CCCCc1[nH]c2nc(N)nn2c(=O)c1Cc1cccc(Cl)c1 [Compound 28]" measured_result="> 60%"
molecule="Cc1cccc(Cc2c(C3CC3)[nH]c3nc(N)nn3c2=O)c1 [Compound 13]" measured_result="> 60%"
molecule="CCCCCCc1[nH]c2nc(N)nn2c(=O)c1Cc1cccc(Cl)c1 [Compound 32]" measured_result=-63%
molecule="CCCc1[nH]c2nc(N)nn2c(=O)c1Cc1cccc(Cl)c1 [Compound 26]" measured_result="> 60%"
molecule="Nc1nc2[nH]c(-c3ccccc3)c(Cc3cccc(Cl)c3)c(=O)n2n1 [Compound 34]" measured_result=-41%
molecule="Cc1ccc(-c2[nH]c3nc(N)nn3c(=O)c2Cc2cccc(Cl)c2)cc1 [Compound 35]" measured_result=-13%
molecule="Cc1ccc(Cc2c(C3CC3)[nH]c3nc(N)nn3c2=O)cc1 [Compound 19]" measured_result=-57%
molecule="COc1ccc(Cc2c(C3CC3)[nH]c3nc(N)nn3c2=O)cc1 [Compound 23]" measured_result=-28%
